- assayedTarget: Reverse transcriptase/RNaseH (Human immunodeficiency virus 1)
- experimentSummary: Inhibition of HIV1 reverse transcriptase
propertyLabel: pIC50
Convention used: pIC50 is expressed as -log10 of the molar concentration.

query: Give the value of pIC50 reported for the following: `C[C@H]1Cn2c(=O)[nH]c3ccc(N)c(c32)CN1CC1CC1`
result: 3.07
